Assay Readout: pIC50
Interpret pIC50 as the negative base-10 log of the concentration measured in mol/L.

Form entry - test system: 5-hydroxytryptamine receptor 2C (Rattus norvegicus); read-out: pIC50; molecule: CN1CCN(C2=Nc3cc(O)ccc3Nc3ccccc32)CC1
Sequence (P08909 whole entry): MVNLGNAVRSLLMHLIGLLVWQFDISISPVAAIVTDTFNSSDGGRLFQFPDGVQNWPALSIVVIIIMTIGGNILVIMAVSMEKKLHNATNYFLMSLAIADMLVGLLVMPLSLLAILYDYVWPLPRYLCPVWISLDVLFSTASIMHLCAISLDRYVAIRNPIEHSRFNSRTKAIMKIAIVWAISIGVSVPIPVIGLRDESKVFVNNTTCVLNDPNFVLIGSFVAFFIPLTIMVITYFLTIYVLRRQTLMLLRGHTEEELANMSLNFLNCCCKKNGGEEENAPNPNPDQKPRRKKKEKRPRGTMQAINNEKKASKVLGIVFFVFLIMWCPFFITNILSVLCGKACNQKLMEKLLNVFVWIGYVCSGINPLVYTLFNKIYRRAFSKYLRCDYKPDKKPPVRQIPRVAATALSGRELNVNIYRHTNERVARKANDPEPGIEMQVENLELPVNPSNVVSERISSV
6.36

Item CN1CCN(C2=Nc3ccccc3Nc3ccc(OS(=O)(=O)C(F)(F)F)cc32)CC1 with 5-hydroxytryptamine receptor 2C (Rattus norvegicus) - pIC50?
7.47

Give recorded pIC50 with 5-hydroxytryptamine receptor 2C (Rattus norvegicus) for the following molecule: CN1CCN(C2=Nc3cc(OS(=O)(=O)C(F)(F)F)ccc3Nc3ccccc32)CC1
6.21

Any idea what pIC50 came out for CN1CCN(C2=Nc3ccccc3Nc3ccc(O)cc32)CC1 on 5-hydroxytryptamine receptor 2C (Rattus norvegicus)?
7.09
